Attribution: PubChem BioAssay (NCI)

Tested on: SN12C renal
METHOD SUMMARY: NCI-60 one-dose screen, 48 h (100 = growth as untreated, 0 = no growth, -100 = all killed)
CONDITION DETAILS: 10 µM unless noted
This is part of a sample that, as a whole, favours compounds with a hit. Of some 83,000 tested, about 20% had one in any assay.
OUTCOME MEASURE: growth (%)
Numeric answer only, unit % assumed.

Known growth results, listed for orientation:
{"columns": ["COMPOUND", "OUTCOME MEASURE", "NUMERIC VALUE"],
 "data": [
  ["O=[N+]([O-])c1ccc(-n2[nH]nnc2=S)cc1", "growth", 94],
  ["CCOc1ccc2cc(-c3nn(CC4CCN(C)CC4)c4ncnc(N)c34)ccc2c1", "growth", 83.7],
  ["CCN(CC)C(=O)c1cccnc1", "growth", 106],
  ["N=C1N=C(N)CS1", "growth", 99.9],
  ["COc1ccc(NC(=S)Nc2ccccn2)cc1", "growth", 100],
  ["CC(O)Cn1cnc2c1c(=O)n(C)c(=O)n2C (stereo unspecified)", "growth", 98.4],
  ["S=C1SCN(Cc2ccccc2)CN1Cc1ccccc1", "growth", 90.5],
  ["Cc1ccc(-c2noc(CC(=O)c3ccc([N+](=O)[O-])cc3)n2)cc1", "growth", 94.1]
]}

Q: Suppose we examine the compound Nc1ccc2ccc(N)cc2c1 ; what growth value has been reported?
Result: 88.5

Q: Suppose we examine the compound Nc1ccc2[nH]c(-c3ccccc3)cc(=O)c2c1 ; what growth value has been reported?
Result: 98.2

Q: Suppose we examine the compound Clc1nc(Oc2ccccc2)nc(-c2cn(-c3ccccc3)c3ccccc23)n1 ; what growth value has been reported?
Result: 85.9

###

System: CCRF-CEM leukemia
METHOD SUMMARY: NCI-60 one-dose screen, 48 h (100 = growth as untreated, 0 = no growth, -100 = all killed)
CONDITION DETAILS: 10 µM unless noted
Description: Growth inhibition of the CCRF-CEM human tumor cell line is measured as a screen for anti-cancer activity. Cells are grown in 96 well plates and exposed to the test compound for 48 hours. Compounds are tested at a single concentration, which is 10^-5 M for most compounds. The reported endpoint is percent growth (GI% or GIPRCNT), where numbers from 0 - 100% represent growth inhibition, and numbers from -100% - 0 represent cell death. For example, a value of 40 represents 60% growth inhibition. […]
Compounds without any hit were thinned out: in the full panel of roughly 83,000, 20% have a hit.
OUTCOME MEASURE: growth (%)
Numeric answer only, unit % assumed.

Q: Suppose we examine the molecule Cc1ccc(S(=O)(=O)NCN2C(=O)c3ccccc3C2=O)cc1 ; what growth value has been reported?
Result: 91

Q: Suppose we examine the molecule NC(=S)NS(=O)(=O)c1ccc(N)cc1 ; what growth value has been reported?
Result: 106

###

System: HOP-92 NSCLC
METHOD SUMMARY: NCI-60 one-dose screen, 48 h (100 = growth as untreated, 0 = no growth, -100 = all killed)
CONDITION DETAILS: 10 µM unless noted
The panel holds about 83,000 compounds, 20% with a hit somewhere; the sample as a whole holds those more often. Active and inactive are the calls of the source. Rule for the calls: active = growth percent below 10; inactive = the rest.
OUTCOME MEASURE: growth

Known growth results, listed for orientation:
{"columns": ["COMPOUND", "OUTCOME MEASURE", "RESULT"],
 "data": [
  ["COc1ccc(/C(C#N)=C/c2ccccn2)cc1", "growth", "99.8% (inactive)"],
  ["O=C(O)C1(C(=O)O)CCC1.[NH2-].[NH2-].[Pt+2]", "growth", "70.1% (inactive)"],
  ["O=C(CN1CCOCC1)N1CCOCC1", "growth", "75.3% (inactive)"]
]}

Q: Suppose we examine the compound COc1cc(Nc2nc3ccccc3nc2NS(=O)(=O)c2ccc(NC(=O)c3ccc(C)c(OC)c3)cc2)cc(OC)c1 ; what growth value has been reported?
Result: -26.5% (active)

Q: Suppose we examine the compound O=C=NC(c1ccccc1)(c1ccccc1)c1ccccc1 ; what growth value has been reported?
Result: 110% (inactive)

Q: Suppose we examine the compound COc1cc(/C=N/Nc2nc3c([nH]2)c(=O)n(C)c(=O)n3C)ccc1O ; what growth value has been reported?
Result: 102% (inactive)

Q: Suppose we examine the compound CCN(CC)CCOc1ccc2c(c1)C(=O)c1cc(OCCN(CC)CC)ccc1-2 ; what growth value has been reported?
Result: 20% (inactive)

Q: Suppose we examine the compound COc1ccc(NC(=S)Nc2ccccn2)cc1 ; what growth value has been reported?
Result: 77% (inactive)

Q: Suppose we examine the compound CNC(=O)c1cccnc1 ; what growth value has been reported?
Result: 109% (inactive)

Q: Suppose we examine the compound COc1ccccc1NC(=O)OCC#CCOC(=O)Nc1ccccc1OC ; what growth value has been reported?
Result: 83.1% (inactive)

Q: Suppose we examine the compound Cn1c(=O)c2[nH]c(CCCCCCCCc3nc4ccccc4[nH]3)nc2n(C)c1=O ; what growth value has been reported?
Result: 60.4% (inactive)

###

System: TK-10 renal
METHOD SUMMARY: NCI-60 one-dose screen, 48 h (100 = growth as untreated, 0 = no growth, -100 = all killed)
CONDITION DETAILS: 10 µM
Experimental: Growth inhibition of the TK-10 human tumor cell line is measured as a screen for anti-cancer activity. Cells are grown in 96 well plates and exposed to the test compound for 48 hours. Compounds are tested at a single concentration, which is 10^-5 M for most compounds. The reported endpoint is percent growth (GI% or GIPRCNT), where numbers from 0 - 100% represent growth inhibition, and numbers from -100% - 0 represent cell death. For example, a value of 40 represents 60% growth inhibition. […]
About 83,000 compounds went through this panel and 20% of them were active in at least one assay; those are over-represented in the sample as a whole.
Here the recorded growth is given for each entry.
Numeric answer only, unit % assumed.

{"columns": ["COMPOUND", "UNITS", "NUMERIC VALUE"],
 "data": [
  ["Cc1[nH]c(-c2nc3ccccc3[nH]2)c(C)c1C(=O)NC(C)C1CCCCC1 (configuration not stated)", "%", 103],
  ["CC1(C)OB(c2ccc(Cn3cc(F)c(=O)[nH]c3=O)cc2)OC1(C)C", "%", 102]
]}

Q: Suppose we examine the compound CC#C[C@]1(O)CC[C@H]2[C@@H]3CCC4=CC(=O)CCC4=C3[C@@H](c3ccc4c(c3)OCO4)C[C@@]21C ; what growth value has been reported?
Result: 69.9

Q: Suppose we examine the compound CCc1ccccc1-n1c(N)c(C#N)c(-c2ccc(OC)c(OC)c2)c(C#N)c1=O ; what growth value has been reported?
Result: 114

Q: Suppose we examine the compound O=C(O)c1sccc1O ; what growth value has been reported?
Result: 133

Q: Suppose we examine the compound CCCCCCCCCCCCCCCc1ccc(Cl)c(O)c1Cl (tested in a mixture with another compound) ; what growth value has been reported?
Result: 115

Q: Suppose we examine the compound CC(C)(C)c1cc(NC(=O)Cc2ccc(-c3cnc4cc(-c5cnn(CCN6CCOCC6)c5)ccc4n3)cc2)no1 ; what growth value has been reported?
Result: 34.9

###

System: NCI-H522 lung
METHOD SUMMARY: NCI-60 one-dose screen, 48 h (100 = growth as untreated, 0 = no growth, -100 = all killed)
CONDITION DETAILS: 10 µM unless noted
Experimental: Growth inhibition of the NCI-H522 human Non-Small Cell Lung tumor cell line is measured as a screen for anti-cancer activity. Cells are grown in 96 well plates and exposed to the test compound for 48 hours. Compounds are tested at a single concentration, which is 10^-5 M for most compounds. The reported endpoint is percent growth (GI% or GIPRCNT), where numbers from 0 - 100% represent growth inhibition, and numbers from -100% - 0 represent cell death. […]
About 83,000 compounds went through this panel and 20% of them were active in at least one assay; those are over-represented in the sample as a whole. The source made the active and inactive calls. Rule for the calls: active = growth percent below 10; inactive = the rest.
OUTCOME MEASURE: growth

Known growth results, listed for orientation:
{"columns": ["COMPOUND", "growth"],
 "data": [
  ["O=S1(=O)CC(Br)C(Br)C1 (configuration not stated)", "-48.2% (active)"],
  ["O=CC(O)C(O)C(O)CO (configuration not stated)", "33.4% (inactive)"],
  ["Cc1nn(-c2ccccc2)nc1C(=O)Nc1ccccc1C(=O)NCC1CC1", "91.9% (inactive)"]
]}

Q: Suppose we examine the compound Nc1ccc2[nH]c(-c3ccccc3)cc(=O)c2c1 ; what growth value has been reported?
Result: 71.3% (inactive)

Q: Suppose we examine the compound Cc1ccc(-c2noc(CC(=O)c3ccc([N+](=O)[O-])cc3)n2)cc1 ; what growth value has been reported?
Result: 95.2% (inactive)

Q: Suppose we examine the compound C[N+](C)(C)CN1C(=O)c2ccccc2C1=O ; what growth value has been reported?
Result: 90.9% (inactive)
